Catalogue of LIVER readings, one per entry.
# Species: Rattus norvegicus
# protocolNotes: Open TG-GATES - Regimen: Daily Repeat
# Type: toxicity, organism-based, Sprague-Dawley
# Design: regimen Daily Repeat, gender Male, age 6 weeks
# conditionContext: in vivo, po, 300 mg/kg, […], tissue Liver, route gavage, dose level Middle, time 28 day
readoutName: LIVER (g)

molecule	unitsSymbol	experimentalValue
COC(=O)C1=C(C)NC(C)=C(C(=O)OC)C1c1ccccc1[N+](=O)[O-] [NIFEDIPINE]	g	15.8
CN/C(=N/CCSCc1nc[nH]c1C)NC#N [CIMETIDINE]	g	16.3
CNC(=C[N+](=O)[O-])NCCSCc1ccc(CN(C)C)o1 [RANITIDINE]	g	16.3
Cc1nnc2n1-c1ccc(Cl)cc1C(c1ccccc1Cl)=NC2 [TRIAZOLAM]	g	15.8
O=C(OC[C@H]1O[C@@H](OC(=O)c2cc(O)c(O)c(OC(=O)c3cc(O)c(O)c(O)c3)c2)[C@H](OC(=O)c2cc(O)c(O)c(OC(=O)c3cc(O)c(O)c(O)c3)c2)[C@@H](OC(=O)c2cc(O)c(O)c(OC(=O)c3cc(O)c(O)c(O)c3)c2)[C@@H]1OC(=O)c1cc(O)c(O)c(OC(=O)c2cc(O)c(O)c(O)c2)c1)c1cc(O)c(O)c(OC(=O)c2cc(O)c(O)c(O)c2)c1 [TANNIC ACID]	g	17
